System: Plasmodium falciparum
Experiment: Calibr Malaria Delayed Death Assay SOP
Format: functional, organism-based
Design: scale not given: in the data most compounds retested in dose-response had high values
Details: concentration 4.99e-06 (unit not given; other assays of the set use mol/L)
About 1,200 (3.2%) of roughly 38,000 compounds showed an effect of 50% or more. The median lay at about -58%. Many of the other results were omitted from the sample, so strong results are more common in it than they were.
Heads up, the class ranges for Percent Effect are group A (below -80%), group B (-80% to below -40%), group C (-40% or more)

[in] Class for `COCCNC(=O)Cn1cc2c(n1)c(C)nn2C` ?
[out] group A

[in] Hi, small favor: classify Cc1nc(C)n(CC2CCCN(Cc3nc(-c4ccco4)no3)C2)n1 (stereo not drawn) by its Percent Effect when you get a moment.
[out] group C

[in] Category of O=C(Cn1c(=O)oc2ccccc21)NCC1(O)CCc2ccccc21 (stereo not drawn) :
[out] group A

[in] Category lookup for the compound `COc1cccc(-c2cc(CN)ccc2F)c1F`
[out] group B

[in] Please classify: `CC(C)c1cc(-c2cnn(C)c2C2CC2)c(C#N)c(N)n1`
[out] group B
